target: opioid receptor subtype δ (Homo sapiens); experiment: Competitive radioligand binding ([3H]Diprenorphine), opioid receptor subtype δ; conditions: read-out: Inhibition percentage of competitive binding, δ
Sequence (P41143 whole entry): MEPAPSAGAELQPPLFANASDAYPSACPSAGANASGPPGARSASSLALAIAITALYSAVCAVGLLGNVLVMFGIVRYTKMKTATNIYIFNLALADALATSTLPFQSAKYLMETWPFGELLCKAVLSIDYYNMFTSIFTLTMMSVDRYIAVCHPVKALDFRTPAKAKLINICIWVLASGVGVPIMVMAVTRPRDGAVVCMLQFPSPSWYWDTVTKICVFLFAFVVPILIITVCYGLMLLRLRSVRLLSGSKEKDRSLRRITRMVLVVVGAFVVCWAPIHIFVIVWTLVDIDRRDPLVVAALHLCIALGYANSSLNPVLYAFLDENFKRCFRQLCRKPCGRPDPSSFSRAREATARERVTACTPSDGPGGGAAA
RECORDED METRIC: inhibition at 10 µM (%)
Give the number; % is assumed, so skip it.

As a guide, the following entries are already answered.
COMPOUND	STUDY SYSTEM	RECORDED METRIC	DATA VALUE
C[C@@H]([C@H](O)c1ccccc1)N1CCN(c2cccc(C(F)(F)F)c2)CC1 (racemic)	opioid receptor subtype δ (Homo sapiens)	inhibition at 10 µM	0
COc1ccccc1N1CCN([C@H](C)[C@H](O)c2ccccc2)CC1 [III-2]	opioid receptor subtype δ (Homo sapiens)	inhibition at 10 µM	16.8
COc1ccccc1N1CCN([C@@H](C)[C@H](O)c2ccc3c(c2)CC(=O)N3)CC1 (racemic)	opioid receptor subtype δ (Homo sapiens)	inhibition at 10 µM	0
COc1ccccc1N1CCN([C@@H](C)[C@@H](O)c2ccccc2)CC1	opioid receptor subtype δ (Homo sapiens)	inhibition at 10 µM	12.8

Attention now shifts to the item below.
[Q] Note down inhibition at 10 µM recorded for COc1ccccc1N1CCN([C@H](C)[C@H](O)c2ccccc2)CC1 (racemic) [Compound I-20]
[A] 0

Origin of the recorded values: patent US8778948B2
